Data origin: patent US12024503B2

# TESTED_SYSTEM: JAK1 (Homo sapiens, UniProt P23458)
# Construct: purchased Carna Biosciences
# Sequence (P23458 whole entry): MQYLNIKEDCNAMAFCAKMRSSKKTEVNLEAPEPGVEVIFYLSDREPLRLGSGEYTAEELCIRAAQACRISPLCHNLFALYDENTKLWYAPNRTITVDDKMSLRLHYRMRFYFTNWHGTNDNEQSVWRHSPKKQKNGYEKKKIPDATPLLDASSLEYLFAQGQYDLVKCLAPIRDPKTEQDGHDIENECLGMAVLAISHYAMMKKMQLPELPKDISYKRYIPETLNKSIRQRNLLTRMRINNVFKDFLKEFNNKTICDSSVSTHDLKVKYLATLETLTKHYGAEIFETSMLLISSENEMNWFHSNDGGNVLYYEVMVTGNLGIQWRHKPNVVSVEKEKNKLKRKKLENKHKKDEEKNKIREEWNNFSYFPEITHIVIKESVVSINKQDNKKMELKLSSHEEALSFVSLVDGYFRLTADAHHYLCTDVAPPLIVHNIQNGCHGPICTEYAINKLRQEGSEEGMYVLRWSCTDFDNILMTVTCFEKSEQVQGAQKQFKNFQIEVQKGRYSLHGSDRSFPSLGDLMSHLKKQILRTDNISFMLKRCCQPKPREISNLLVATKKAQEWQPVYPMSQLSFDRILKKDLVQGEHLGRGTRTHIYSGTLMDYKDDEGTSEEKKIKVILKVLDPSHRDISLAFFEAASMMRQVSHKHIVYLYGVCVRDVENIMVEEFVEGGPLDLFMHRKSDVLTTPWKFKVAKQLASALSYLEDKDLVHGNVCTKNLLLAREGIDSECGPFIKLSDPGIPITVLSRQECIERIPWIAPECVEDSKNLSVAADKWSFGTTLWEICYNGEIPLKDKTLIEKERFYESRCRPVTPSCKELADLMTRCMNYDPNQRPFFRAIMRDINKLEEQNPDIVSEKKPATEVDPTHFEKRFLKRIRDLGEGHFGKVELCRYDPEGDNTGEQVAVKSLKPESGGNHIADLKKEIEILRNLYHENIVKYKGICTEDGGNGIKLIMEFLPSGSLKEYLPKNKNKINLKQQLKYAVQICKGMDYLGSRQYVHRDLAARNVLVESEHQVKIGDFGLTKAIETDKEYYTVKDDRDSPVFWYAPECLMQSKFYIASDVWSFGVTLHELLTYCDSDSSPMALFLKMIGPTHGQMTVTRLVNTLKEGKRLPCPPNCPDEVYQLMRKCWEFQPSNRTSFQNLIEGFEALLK
# RUN_DESCRIPTION: JAK1 microfluidic kinase assay (Caliper EZ Reader II, FAM labeled peptide substrate)
# Assay type: biochemical
# ASSAY_SETUP: (5 nM), 1 mM ATP; Table 2; read-out: IC50 JAK1 (5 nM) (1 mM ATP)

| COMPOUND | IC50 |
| --- | --- |
| Cc1cnc(Nc2cnn(CC#N)c2)nc1-c1ccc(OCC2(C#N)CC2)c(F)c1 [Example 31] | 7.94 nM |
| Cc1cnc(Nc2cnn(C3CC3)c2)nc1-c1ccc(OCC(C)(C)C#N)c(F)c1 [Example 4] | < 2.5 nM |
| N#CC1(CNc2ccc(-c3nc(Nc4cnn(C5CCNCC5)c4)ncc3Cl)cc2)CC1 [Example 44] | 35.3 nM |
| Cc1cnc(Nc2cnn(C3CCN(C)CC3)c2)nc1-c1ccc(OCC(C)(C)C#N)c(F)c1 [Example 18] | < 2.5 nM |
| Cc1cnc(Nc2cnn(C3CC3)c2)nc1-c1ccc(OC2CC(C#N)C2)cc1 (centres unmarked) [Example 2] | 72.7 nM |
| N#CC1(COc2ccc(-c3nc(Nc4cnn(C5CCOCC5)c4)ncc3Cl)cc2F)CC1 [Example 23] | 13.6 nM |
| Cc1cnc(Nc2cnn(C3CC3)c2)nc1-c1ccc(OCC(C)(C)C#N)cc1 [Example 1] | 4.8 nM |
| CC(=O)N1CCC(n2cc(Nc3ncc(C)c(-c4ccc(OCC5(C#N)CC5)c(F)c4)n3)cn2)CC1 [Example 13] | 5.58 nM |
